Kindly state FT ΔG^0 (free energy) for each of the entries shown.
target: EnaH-EVH1 domain (Homo sapiens (Human), UniProt Q8N8S7); assay: Binding affinity to the EnaH-EVH1 domain by fluorescence titration (FT); conditions: EnaH-EVH1 domain; standard errors in brackets
Sequence (Q8N8S7 1-111): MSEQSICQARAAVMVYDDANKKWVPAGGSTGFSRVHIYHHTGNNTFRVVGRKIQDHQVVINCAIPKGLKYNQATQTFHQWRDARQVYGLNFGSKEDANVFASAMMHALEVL

get_value(item= COC(=O)[C@@H]1CC[C@@H]2C=C[C@H]3CCN(C(=O)[C@@H]4CC[C@H]5C=C[C@]6(CCCN6C(=O)[C@H](Cc6ccccc6Cl)NC(C)=O)C(=O)N54)[C@@H]3C(=O)N21 [Ligand 242, Ac-[L-2Cl—F]-[ProM-2]-[ProM-1]-OMe] , readout=FT ΔG^0 (free energy)) returns −30.6 (0.4) kJ/mol

get_value(item= CCOC(=O)[C@@H]1CC[C@@H]2C=C[C@H]3CCN(C(=O)[C@@H]4CC[C@H]5C=C[C@]6(CCCN6C(=O)[C@H](Cc6ccccc6Cl)NC(C)=O)C(=O)N54)[C@@H]3C(=O)N21 [Ligand 44, Ac-[L-2Cl—F]-[ProM-2]-[ProM-1]-OEt, reference compound] , readout=FT ΔG^0 (free energy)) returns −30.8 (0.2) kJ/mol

get_value(item= `CC[C@@H]1C=C[C@H]2CCN(C(=O)[C@@H]3CC[C@H]4C=C[C@]5(CCCN5C(=O)[C@H](Cc5ccccc5Cl)NC(C)=O)C(=O)N43)[C@@H]2C(=O)N1CC(=O)OC` , readout=FT ΔG^0 (free energy)) returns −36.1 (0.1) kJ/mol

get_value(item= CCOC(=O)[C@@H]1C[C@@H](C)[C@@H]2C=C[C@H]3CCN(C(=O)[C@@H]4CC[C@H]5C=C[C@]6(CCCN6C(=O)[C@H](Cc6ccccc6Cl)NC(C)=O)C(=O)N54)[C@@H]3C(=O)N12 [Ligand 251, Ac-[L-2Cl—F]-[ProM-2]-[ProM-9]-OEt, reference compound] , readout=FT ΔG^0 (free energy)) returns −36.6 (0.3) kJ/mol
